- STUDY TARGET: Human Neutrophil Elastase (HNE) (Homo sapiens, UniProt P08246)
- Construct: Human Neutrophil Elastase (HNE) purified from serum
- Sequence (P08246 30-247 limits assumed): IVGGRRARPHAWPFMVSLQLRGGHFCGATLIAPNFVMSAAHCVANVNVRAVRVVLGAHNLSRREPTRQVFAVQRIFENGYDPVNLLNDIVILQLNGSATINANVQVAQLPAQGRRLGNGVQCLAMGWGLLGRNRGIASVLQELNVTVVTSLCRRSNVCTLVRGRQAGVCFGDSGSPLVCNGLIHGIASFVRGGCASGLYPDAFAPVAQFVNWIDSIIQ
- ASSAY TEXT: Human Neutrophil Elastase Quenched-FRET Assay
- APPLIED CONDITIONS: HNE purified from serum 1.7 nM, substrate MeOSuc-AAPV-AMC 100 μM, 30 minutes at room temperature; read-out: Inhibition of Human Neutrophil Elastase IC50
// reported IC50 per item
MEASURE: IC50 (nM)

>>> print(df.to_string())
                                   compound  measure  observed_result
0  Cc1c([S+]([O-])c2ccc(C#N)cc2)cc(C(=O)NCC2(O)CC2)c(=O)n1-c1cccc(C(F)(F)F)c1 (stereo not shown)     IC50                9
1  Cc1c([S+]([O-])c2ccc(C#N)cc2)cc(C(=O)NCC(C)O)c(=O)n1-c1cccc(C(F)(F)F)c1 (stereo not shown)     IC50                4
2  Cc1c(S(=O)(=O)O)cc(C(=O)NCc2ccc(S(C)(=O)=O)cc2)c(=O)n1-c1cccc(C(F)(F)F)c1     IC50               45
3  CC(=O)Nc1ccc(S(=O)(=O)c2cc(C(=O)NCc3ccc(S(C)(=O)=O)cc3)c(=O)n(-c3cccc(C(F)(F)F)c3)c2C)cc1     IC50               14

This collection of values is drawn from patent US20090105239A1.
